MIC listing for selected compounds.
system: Cryptococcus neoformans; test: Antifungal activity against Cryptococcus neoformans after 72 hrs by micro-broth dilution method; type: functional
MEASURE: MIC

>>> reading("OC(CN(Cc1cn(Cc2c(Cl)cccc2Cl)nn1)C1CC1)(Cn1cncn1)c1ccc(F)cc1F (centres undefined)")
"64 µg/mL"
>>> reading("CC(C)N(Cc1cn(Cc2ccc(Cl)cc2)nn1)CC(O)(Cn1cncn1)c1ccc(F)cc1F (centres undefined)")
"4 µg/mL"
>>> reading("CC(C)N(Cc1cn(Cc2ccc(C(C)(C)C)cc2)nn1)CC(O)(Cn1cncn1)c1ccc(F)cc1F (centres undefined)")
"32 µg/mL"
>>> reading("CCCCCCCCCCCCCCCCn1cc(CN(CC(O)(Cn2cncn2)c2ccc(F)cc2F)C(C)C)nn1 (centres undefined)")
"2 µg/mL"
>>> reading("CC(C)N(Cc1cn(Cc2cccc(C#N)c2)nn1)CC(O)(Cn1cncn1)c1ccc(F)cc1F (centres undefined)")
"64 µg/mL"
>>> reading("CCc1ccc(Cn2cc(CN(CC(O)(Cn3cncn3)c3ccc(F)cc3F)C3CC3)nn2)cc1 (centres undefined)")
"1 µg/mL"
>>> reading("CC(C)N(Cc1cn(Cc2c(Cl)cccc2Cl)nn1)CC(O)(Cn1cncn1)c1ccc(F)cc1F (centres undefined)")
"0.0625 µg/mL"
>>> reading("CC(C)N(Cc1cn(Cc2ccc(F)cc2)nn1)CC(O)(Cn1cncn1)c1ccc(F)cc1F (centres undefined)")
"8 µg/mL"
>>> reading("Cc1ccccc1Cn1cc(CN(CC(O)(Cn2cncn2)c2ccc(F)cc2F)C2CC2)nn1 (centres undefined)")
"0.0625 µg/mL"
>>> reading("CC(C)N(Cc1cn(Cc2cccc([N+](=O)[O-])c2)nn1)CC(O)(Cn1cncn1)c1ccc(F)cc1F (centres undefined)")
"32 µg/mL"
>>> reading("N#Cc1cccc(Cn2cc(CN(CC(O)(Cn3cncn3)c3ccc(F)cc3F)C3CC3)nn2)c1 (centres undefined)")
"64 µg/mL"
>>> reading("CC(C)N(Cc1cn(Cc2ccccc2Br)nn1)CC(O)(Cn1cncn1)c1ccc(F)cc1F (centres undefined)")
"1 µg/mL"
>>> reading("C[C@@H](c1ncncc1F)[C@](O)(Cn1cncn1)c1ccc(F)cc1F")
"< 0.125 µg/mL"
>>> reading("CC(C)N(Cc1cn(Cc2ccccc2)nn1)CC(O)(Cn1cncn1)c1ccc(F)cc1F (centres undefined)")
"8 µg/mL"
>>> reading("CCCCCn1cc(CN(CC(O)(Cn2cncn2)c2ccc(F)cc2F)C2CC2)nn1 (centres undefined)")
"32 µg/mL"
>>> reading("OC(CN(Cc1cn(Cc2cccc(F)c2)nn1)C1CC1)(Cn1cncn1)c1ccc(F)cc1F (centres undefined)")
"> 64 µg/mL"
>>> reading("O=[N+]([O-])c1cccc(Cn2cc(CN(CC(O)(Cn3cncn3)c3ccc(F)cc3F)C3CC3)nn2)c1 (centres undefined)")
"64 µg/mL"
>>> reading("C[C@@H]1[C@H](O)[C@@H](C)/C=C/C=C/C=C/C=C/C=C/C=C/C=C/[C@H](O[C@@H]2O[C@H](C)[C@@H](O)[C@H](N)[C@@H]2O)C[C@@H]2O[C@](O)(C[C@@H](O)C[C@@H](O)[C@H](O)CC[C@@H](O)C[C@@H](O)CC(=O)O[C@H]1C)C[C@H](O)[C@H]2C(=O)O")
"4 µg/mL"
>>> reading("CN(C/C=C/C#CC(C)(C)C)Cc1cccc2ccccc12")
"8 µg/mL"
>>> reading("Cc1ccc(Cn2cc(CN(CC(O)(Cn3cncn3)c3ccc(F)cc3F)C(C)C)nn2)cc1 (centres undefined)")
"8 µg/mL"
>>> reading("CCC(C)n1ncn(-c2ccc(N3CCN(c4ccc(OCC5COC(Cn6cncn6)(c6ccc(Cl)cc6Cl)O5)cc4)CC3)cc2)c1=O (centres undefined)")
"0.125 µg/mL"
>>> reading("OC(CN(Cc1cn(Cc2ccccc2Br)nn1)C1CC1)(Cn1cncn1)c1ccc(F)cc1F (centres undefined)")
"64 µg/mL"
>>> reading("CC(C)N(Cc1cn(Cc2ccc([N+](=O)[O-])cc2)nn1)CC(O)(Cn1cncn1)c1ccc(F)cc1F (centres undefined)")
"16 µg/mL"
>>> reading("O=[N+]([O-])c1ccc(Cn2cc(CN(CC(O)(Cn3cncn3)c3ccc(F)cc3F)C3CC3)nn2)cc1 (centres undefined)")
"16 µg/mL"
>>> reading("O=[N+]([O-])c1ccccc1Cn1cc(CN(CC(O)(Cn2cncn2)c2ccc(F)cc2F)C2CC2)nn1 (centres undefined)")
"64 µg/mL"
>>> reading("CC(C)N(Cc1cn(Cc2ccccc2F)nn1)CC(O)(Cn1cncn1)c1ccc(F)cc1F (centres undefined)")
"2 µg/mL"
>>> reading("N#Cc1ccc(Cn2cc(CN(CC(O)(Cn3cncn3)c3ccc(F)cc3F)C3CC3)nn2)cc1 (centres undefined)")
"64 µg/mL"
>>> reading("CC(C)N(Cc1cn(Cc2ccccc2C#N)nn1)CC(O)(Cn1cncn1)c1ccc(F)cc1F (centres undefined)")
"64 µg/mL"
>>> reading("CC(C)N(Cc1cn(Cc2ccc(Cl)cc2Cl)nn1)CC(O)(Cn1cncn1)c1ccc(F)cc1F (centres undefined)")
"8 µg/mL"
>>> reading("CC(C)N(Cc1cn(Cc2ccc(Br)cc2)nn1)CC(O)(Cn1cncn1)c1ccc(F)cc1F (centres undefined)")
"8 µg/mL"
>>> reading("N#Cc1ccccc1Cn1cc(CN(CC(O)(Cn2cncn2)c2ccc(F)cc2F)C2CC2)nn1 (centres undefined)")
"64 µg/mL"
>>> reading("CC(C)N(Cc1cn(Cc2cccc(Cl)c2)nn1)CC(O)(Cn1cncn1)c1ccc(F)cc1F (centres undefined)")
"32 µg/mL"
>>> reading("CC(C)N(Cc1cn(C2CCCCC2)nn1)CC(O)(Cn1cncn1)c1ccc(F)cc1F (centres undefined)")
"16 µg/mL"
>>> reading("CC(C)N(Cc1cn(Cc2ccccc2Cl)nn1)CC(O)(Cn1cncn1)c1ccc(F)cc1F (centres undefined)")
"16 µg/mL"
